- Target Or Test System: МК-801 binding site of NMDA receptor (Rattus norvegicus, UniProt P35439)
- Construct: A membrane preparation of hippocampus for radioligand analysis was prepared; from tissue; host or cells: rat hippocampal membranes
- Protocol Notes: Radioligand binding, [3H]MK-801 site of NMDA receptor, hippocampal membranes
- Assay Conditions: 100 μM compound; rat hippocampal membranes
- Method: Effect of test compounds on the radioligand binding to NMDA receptors was determined by using a modified method as reported earlier by Zhou L-M and coworkers. Two radioactive ligands were used: [^3H] […] A membrane preparation of hippocampus for radioligand analysis was prepared by the techniques described previously. […] Nonspecific binding was determined in the presence of 50 μl of […] of unlabeled ligand. […]
Property Label: % of [3H]МК-801 blockade at 100 μM of compound (%)
Answers are plain numbers, in %.

Worked set:
Cc1ccc2c(c1)c1c(n2CCC(=O)N2c3ccccc3Sc3ccccc32)CCN(C)C1
80.4
CN(C)c1ccc2nc3ccc(=[N+](C)C)cc-3sc2c1 [MB, methylene blue, reference compound]
2.0
COc1ccc2c(c1)c1c(n2C[C@@H](O)CN2c3ccccc3Sc3ccccc32)CCN(C)C1
19.1
CN1CCc2c(c3ccccc3n2CCC(=O)N2c3ccccc3Sc3ccccc32)C1
74.9
CCN1CCc2c(c3cc(F)ccc3n2CC(O)CN2c3ccccc3Sc3ccccc32)C1 (racemic)
24.1
CCN1CCc2c(c3cc(C)ccc3n2CCC(=O)N2c3ccccc3Sc3ccccc32)C1
95.7

Batch: % of [3H]МК-801 blockade at 100 μM of compound for all items listed.
1. CCN1CCc2c(c3ccccc3n2CCC(=O)N2c3ccccc3Sc3ccccc32)C1
2. CCN1CCc2c(c3cc(F)ccc3n2CCC(=O)N2c3ccccc3Sc3ccccc32)C1
3. CCc1ccc2c(c1)c1c(n2CCC(=O)N2c3ccccc3Sc3ccccc32)CCN(C)C1
4. CN1CCc2c(c3cc(F)ccc3n2CCC(=O)N2c3ccccc3Sc3ccccc32)C1

1: 76.1; 2: 82.4; 3: 89.4; 4: 78.7

Give me % of [3H]МК-801 blockade at 100 μM of compound for each of these compounds, listed below.
1. Cc1ccc2c(c1)c1c(n2CCc2ccc(C)nc2)CCN(C)C1 [dimebon, reference compound]
2. CC(C)c1ccc2c(c1)c1c(n2CCC(=O)N2c3ccccc3Sc3ccccc32)CCN(C)C1

[27.8, 80.3]

---

- Target Or Test System: МК-801 binding site of NMDA receptor (Rattus norvegicus)
- Construct: A membrane preparation of hippocampus for radioligand analysis was prepared; from tissue; host or cells: rat hippocampal membranes
- Protocol Notes: Radioligand binding, [3H]MK-801 site of NMDA receptor, hippocampal membranes
- Assay Conditions: read-out: [3H]МК-801, IC50; rat hippocampal membranes
Property Label: IC50
Param answer (str): number followed by unit.

Fill: IC50 (МК-801 binding site of NMDA receptor (Rattus norvegicus)) for this compound COc1ccc2c(c1)c1c(n2C[C@@H](O)CN2c3ccccc3Sc3ccccc32)CCN(C)C1
113 µM

---

- Target Or Test System: МК-801 binding site of NMDA receptor (Rattus norvegicus, UniProt P35439)
- Construct: A membrane preparation of hippocampus for radioligand analysis was prepared; from tissue; host or cells: rat hippocampal membranes
- Protocol Notes: Radioligand binding, [3H]MK-801 site of NMDA receptor, hippocampal membranes
- Assay Conditions: rat hippocampal membranes; read-out: [3H]МК-801, IC50
Property Label: IC50

CC(C)c1ccc2c(c1)c1c(n2CCC(=O)N2c3ccccc3Sc3ccccc32)CCN(C)C1
17.8 µM

Would you be so kind as to report IC50 for each listed record?
1. Cc1ccc2c(c1)c1c(n2CCC(=O)N2c3ccccc3Sc3ccccc32)CCN(C)C1
2. Cc1ccc2c(c1)c1c(n2CC(O)CN2c3ccccc3Sc3ccccc32)CCN(C)C1 (racemic)
3. CN1CCc2c(c3cc(F)ccc3n2CCC(=O)N2c3ccccc3Sc3ccccc32)C1

13.5 µM
84.8 µM
17.7 µM

---

Kindly state pKi for each of the entries shown.
- Target Or Test System: butyrylcholinesterase (BChE, EC 3.1.1.8, from equine serum) (Equus caballus, UniProt P81908)
- Construct: butyrylcholinesterase (BChE, EC 3.1.1.8, from equine serum)
- Sequence (P81908 whole entry): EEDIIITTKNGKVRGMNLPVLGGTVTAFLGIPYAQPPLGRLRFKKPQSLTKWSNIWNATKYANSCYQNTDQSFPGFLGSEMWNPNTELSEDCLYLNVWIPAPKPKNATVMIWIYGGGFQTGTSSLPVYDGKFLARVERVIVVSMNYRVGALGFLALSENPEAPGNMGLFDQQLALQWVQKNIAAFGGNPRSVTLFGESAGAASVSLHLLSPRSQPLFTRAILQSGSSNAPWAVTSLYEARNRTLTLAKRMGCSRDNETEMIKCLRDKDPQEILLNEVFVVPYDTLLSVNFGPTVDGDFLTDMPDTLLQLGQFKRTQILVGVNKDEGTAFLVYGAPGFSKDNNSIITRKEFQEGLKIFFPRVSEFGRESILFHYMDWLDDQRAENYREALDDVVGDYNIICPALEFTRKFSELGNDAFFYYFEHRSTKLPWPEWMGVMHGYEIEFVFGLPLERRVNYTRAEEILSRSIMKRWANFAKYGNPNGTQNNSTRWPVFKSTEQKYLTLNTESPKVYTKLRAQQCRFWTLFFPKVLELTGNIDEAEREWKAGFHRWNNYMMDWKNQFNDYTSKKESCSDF
- Protocol Notes: biochemical
- Assay Conditions: BChE; means ± SEM, at least three experiments; read-out: Ki (competitive inhibition constant)
Numbers only, as −log10 of the molar value.

COc1ccc2c(c1)c1c(n2C[C@@H](O)CN2c3ccccc3Sc3ccccc32)CCN(C)C1 [C-2c]
6.60
CCN1CCc2c(c3cc(F)ccc3n2CC(O)CN2c3ccccc3Sc3ccccc32)C1 (racemic) [C-2b]
6.09
CCN1CCc2c(c3ccccc3n2CCC(=O)N2c3ccccc3Sc3ccccc32)C1 [C-1e]
6.59

Fill in pKi for each of the 5 molecules listed.
1. CCc1ccc2c(c1)c1c(n2CCC(=O)N2c3ccccc3Sc3ccccc32)CCN(C)C1 [C-1g]
2. CCN1CCc2c(c3cc(C)ccc3n2CCC(=O)N2c3ccccc3Sc3ccccc32)C1 [C-1b]
3. CCN1CCc2c(c3cc(F)ccc3n2CCC(=O)N2c3ccccc3Sc3ccccc32)C1 [C-1f]
4. CN1CCc2c(c3cc(F)ccc3n2CCC(=O)N2c3ccccc3Sc3ccccc32)C1 [C-1c]
5. CN1CCc2c(c3ccccc3n2CCC(=O)N2c3ccccc3Sc3ccccc32)C1 [C-1d]

[6.34, 6.37, 6.77, 6.32, 6.43]

---

- Target Or Test System: butyrylcholinesterase (BChE, EC 3.1.1.8, from equine serum) (Equus caballus, UniProt P81908)
- Construct: butyrylcholinesterase (BChE, EC 3.1.1.8, from equine serum); purchased Sigma-Aldrich (Germany); host or cells: equine serum
- Protocol Notes: biochemical
- Format: biochemical
- Assay Conditions: equine serum BChE; pH 7.5, 25 °C, 10 min preincubation; read-out: IC50 (μM) ± SEM BChE
Binarize IC50 at 2 µM; below is 1, at or above is 0.

Cc1ccc2c(c1)c1c(n2CC(O)CN2c3ccccc3Sc3ccccc32)CCN(C)C1 (racemic) [C-2a]
0

# check: IC50 < 2 µM for CN1CCc2c(c3cc(F)ccc3n2CCC(=O)N2c3ccccc3Sc3ccccc32)C1 [C-1c]
1

Quick check: does Cc1ccc2c(c1)c1c(n2CCC(=O)N2c3ccccc3Sc3ccccc32)CCN(C)C1 [C-1a] have IC50 under 2 µM?
0

---

- Target Or Test System: butyrylcholinesterase (BChE, EC 3.1.1.8, from equine serum) (Equus caballus, UniProt P81908)
- Construct: butyrylcholinesterase (BChE, EC 3.1.1.8, from equine serum); purchased Sigma-Aldrich (Germany); host or cells: equine serum
- Protocol Notes: biochemical
- Type: biochemical
- Assay Conditions: equine serum BChE; pH 7.5, 25 °C, 10 min preincubation; read-out: IC50 (μM) ± SEM BChE
Property Label: IC50 (µM)
One number for each entry, in µM.

As a guide, the following entries are already answered.
CCN1CCc2c(c3ccccc3n2CCC(=O)N2c3ccccc3Sc3ccccc32)C1
0.52
CCN1CCc2c(c3cc(C)ccc3n2CCC(=O)N2c3ccccc3Sc3ccccc32)C1
2.04
CCc1ccc2c(c1)c1c(n2CCC(=O)N2c3ccccc3Sc3ccccc32)CCN(C)C1
1.36
CC(C)c1ccc2c(c1)c1c(n2CCC(=O)N2c3ccccc3Sc3ccccc32)CCN(C)C1
2.79
COc1ccc2c(c1)c1c(n2C[C@@H](O)CN2c3ccccc3Sc3ccccc32)CCN(C)C1
0.39

List reported IC50 for each of these compounds:
1. CN1CCc2c(c3ccccc3n2CCC(=O)N2c3ccccc3Sc3ccccc32)C1
2. CCN1CCc2c(c3cc(F)ccc3n2CC(O)CN2c3ccccc3Sc3ccccc32)C1 (racemic)
3. CCN1CCc2c(c3cc(F)ccc3n2CCC(=O)N2c3ccccc3Sc3ccccc32)C1

1. 1.07
2. 2.01
3. 0.58
